tested on: RKO; test: Antiproliferative activity against human RKO cells assessed as inhibition of cell growth incubated for 72 hrs by MTT assay; assay type: functional, cell-based
Answer each item with its documented pIC50.
FYI, pIC50 means -log10 of a concentration in mol per litre.

Task: Please give the measured pIC50 for this molecule: `CC(C)(C)OC(=O)N[C@@H](Cc1cnc[nH]1)C(=O)Oc1ccc2[nH]c3c(c2c1)CCN1C(=O)c2cc(F)ccc2N(c2cccc(F)c2)[C@H]31`
Output: 6.96

Task: Proceed to `CC(C)(C)OC(=O)N[C@@H](Cc1c[nH]c2ccccc12)C(=O)Oc1ccc2[nH]c3c(c2c1)CCN1C(=O)c2cc(F)ccc2N(c2cccc(F)c2)[C@H]31`
Output: 7.10

Task: Proceed to `CC(C)(C)OC(=O)N[C@@H](CCC(N)=O)C(=O)Oc1ccc2[nH]c3c(c2c1)CCN1C(=O)c2cc(F)ccc2N(c2cccc(F)c2)[C@H]31`
Output: 7.30

Task: Proceed to `CC(C)[C@H](NC(=O)OC(C)(C)C)C(=O)Oc1ccc2[nH]c3c(c2c1)CCN1C(=O)c2cc(F)ccc2N(c2cccc(F)c2)[C@@H]31`
Output: 4.92

Task: Proceed to `CC(C)(C)OC(=O)N[C@@H](COCc1ccccc1)C(=O)Oc1ccc2[nH]c3c(c2c1)CCN1C(=O)c2cc(F)ccc2N(c2cccc(F)c2)[C@H]31`
Output: 6.96

Task: Proceed to `CSCC[C@H](NC(=O)OC(C)(C)C)C(=O)Oc1ccc2[nH]c3c(c2c1)CCN1C(=O)c2cc(F)ccc2N(c2cccc(F)c2)[C@H]31`
Output: 6.85

Task: Proceed to `CC(C)C[C@H](NC(=O)OC(C)(C)C)C(=O)Oc1ccc2[nH]c3c(c2c1)CCN1C(=O)c2cc(F)ccc2N(c2cccc(F)c2)[C@H]31`
Output: 6.82

Task: Proceed to `C[C@H](NC(=O)OC(C)(C)C)C(=O)Oc1ccc2[nH]c3c(c2c1)CCN1C(=O)c2cc(F)ccc2N(c2cccc(F)c2)[C@H]31`
Output: 6.92

Task: Proceed to `CC(C)(C)OC(=O)N[C@@H](COCc1ccccc1)C(=O)Oc1ccc2[nH]c3c(c2c1)CCN1C(=O)c2cc(F)ccc2N(c2cccc(F)c2)[C@@H]31`
Output: 4.77

Task: Proceed to CCC(C)[C@H](NC(=O)OC(C)(C)C)C(=O)Oc1ccc2[nH]c3c(c2c1)CCN1C(=O)c2cc(F)ccc2N(c2cccc(F)c2)[C@H]31 (stereo partly drawn)
Output: 6.64

Task: Proceed to `C[C@H](NC(=O)OC(C)(C)C)C(=O)Oc1ccc2[nH]c3c(c2c1)CCN1C(=O)c2cc(F)ccc2N(c2cccc(F)c2)[C@@H]31`
Output: 4.80

Task: Proceed to `CC(C)(C)OC(=O)N[C@@H](Cc1ccccc1)C(=O)Oc1ccc2[nH]c3c(c2c1)CCN1C(=O)c2cc(F)ccc2N(c2cccc(F)c2)[C@H]31`
Output: 7.05
